- TARGET: Alpha-2A adrenergic receptor (Homo sapiens); note: assay procedure not described here
- Sequence (P08913 whole entry): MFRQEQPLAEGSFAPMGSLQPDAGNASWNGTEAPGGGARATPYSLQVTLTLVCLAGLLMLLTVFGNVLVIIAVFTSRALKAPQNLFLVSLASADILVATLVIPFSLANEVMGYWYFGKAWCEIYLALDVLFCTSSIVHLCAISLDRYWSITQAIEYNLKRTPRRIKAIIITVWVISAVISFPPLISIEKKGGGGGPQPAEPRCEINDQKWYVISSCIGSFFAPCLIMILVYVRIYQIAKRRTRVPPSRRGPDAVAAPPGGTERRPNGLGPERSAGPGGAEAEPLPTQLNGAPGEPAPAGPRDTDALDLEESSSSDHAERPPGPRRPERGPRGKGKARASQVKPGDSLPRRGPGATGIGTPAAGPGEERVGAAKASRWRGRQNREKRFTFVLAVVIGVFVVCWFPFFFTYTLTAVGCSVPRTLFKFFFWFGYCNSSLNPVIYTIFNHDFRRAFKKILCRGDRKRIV
- Format: functional, cell-based
RECORDED ENDPOINT: AC50

Example entries and their recorded answers appear below.
>>> result("CN1CCN=C(c2ccccc2)c2cc(Cl)ccc21 [MEDAZEPAM]")
"> 30 µM"
>>> result("OC[C@H]1O[C@@H](n2cnc3c2NC=NC[C@H]3O)C[C@@H]1O [PENTOSTATIN]")
"> 30 µM"
>>> result("CC(C)Cc1ccc([C@H](C)C(=O)O)cc1 [DEXIBUPROFEN]")
"> 30 µM"

Next compound, AC50 to be filled in.
Name the reported AC50 value associated with the compound Cn1cc(C(=O)[C@@H]2CCc3nc[nH]c3C2)c2ccccc21 [RAMOSETRON]
4.3 µM

src = ChEMBL document CHEMBL5291721
